Target: Platelet-activating factor acetylhydrolase IB subunit alpha2 (Homo sapiens)
Test: PAFAH1B2 enzyme inhibitors, primary screen, biochemical, fluorescence polarization, human (AID 492953);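 further: 0% = enzyme with DMSO and 100% = wells lacking PAFAH1B2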
Conditions: recombinant PAFAH1B2, FP-rhodamine activity probe, at 3.39 µM, active compounds read high
Out of some 340,000 compounds screened, about 4,200 (1.2%) were called active. The entries come from a sample that favours actives as a whole.
Answer each item with its documented inhibition.
One number for each entry, in %.

Below, each entry is followed by its recorded inhibition result.
COc1cccc(C=CC(=O)C=CC=Cc2ccccc2)c1
-1.3
CC1=NN(/C(=N\c2nnc(C)s2)Nc2ccccc2)[C@H](c2ccc(C)cc2)S1
6.77
COC(=O)[C@@H]1C[C@H]2CC[C@H](O)C[C@H]2N1Cc1ccc(N2CCN(C)CC2)cc1
-3.13
O=C(NCc1cccc(C(F)(F)F)c1)c1cccc(S(=O)(=O)N2CCN(Cc3ccccc3)CC2)c1
-9.49
Oc1cc2c(cc1O)CN(C(=S)NCCc1ccc(Cl)cc1)CCC2
63.6

Report inhibition for each item below.
1. COc1ccc(CCNC(=S)N2CCN(S(=O)(=O)c3ccc(Cl)cc3)CC2)cc1
2. Cc1c(NS(=O)(=O)c2cccc(C(=O)Nc3ccc(SC(F)F)cc3)c2)c(=O)n(-c2ccccc2)n1C
3. CC(=O)Nc1ccc(S(=O)(=O)NC2(C(F)(F)F)C(=O)Nc3c2c(=O)[nH]c(=O)n3Cc2ccccc2)cc1 (centres undefined)
4. CC(=O)Nc1ccc(S(=O)(=O)NCCc2ccccc2)cc1

output:
[11.4, 5.1, 24.4, 3.04]

---

Target: Platelet-activating factor acetylhydrolase IB subunit alpha2 (Homo sapiens) (UniProt P68402)
Sequence (P68402 whole entry, looked up): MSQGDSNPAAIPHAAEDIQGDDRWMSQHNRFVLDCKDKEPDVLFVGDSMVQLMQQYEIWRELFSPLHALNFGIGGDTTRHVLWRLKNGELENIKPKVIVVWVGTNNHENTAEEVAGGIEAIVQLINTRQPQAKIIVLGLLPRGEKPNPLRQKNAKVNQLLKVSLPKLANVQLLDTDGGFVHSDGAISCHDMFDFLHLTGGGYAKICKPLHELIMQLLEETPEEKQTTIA
Assay: PAFAH1B2 enzyme inhibitors, primary screen, biochemical, fluorescence polarization, human (AID 492953);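 further: 0% = enzyme with DMSO and 100% = wells lacking PAFAH1B2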
Settings: recombinant PAFAH1B2, FP-rhodamine activity probe, at 3.39 µM, active compounds read high
Hit rate of the full screen: of about 340,000 compounds, about 4,200 (1.2%) were called active. The entries come from a sample that favours actives as a whole.
Answer each item with its documented inhibition.
One number for each entry, in %.

Cc1ccc(S(=O)(=O)N2CCN(C(=O)CN3C(=O)NC(C)(c4ccc(Cl)cc4)C3=O)CC2)c(C)c1 (stereo unspecified)
5.07
CCC1(CC)Cc2ccccc2-c2nc(CCl)[nH]c(=O)c21
4.98
CN(C)CCNC(=O)c1ccc(Cl)c2cc3ccccc3nc12
-1.08
COc1ccccc1N1CCN(S(=O)(=O)c2ccc(Cl)cc2)CC1
31.7
CC1(C(=O)OCC(=O)Nc2ncc(Cl)cc2Cl)CC1(Cl)Cl (stereo unspecified)
2.15

input: Form field: reported inhibition of `O=c1[nH]c(CCl)nc2cc(-c3ccc(Cl)cc3)sc12`
output: 43.4

---

Answer each item with its documented inhibition.
Target: Platelet-activating factor acetylhydrolase IB subunit alpha2 (Homo sapiens)
Experiment: PAFAH1B2 enzyme inhibitors, primary screen, biochemical, fluorescence polarization, human (AID 492953);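 further: 0% = enzyme with DMSO and 100% = wells lacking PAFAH1B2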
Settings: recombinant PAFAH1B2, FP-rhodamine activity probe, at 3.39 µM, active compounds read high
Out of some 340,000 compounds screened, about 4,200 (1.2%) were called active. The sample holds actives, similar compounds and a random draw of the others, so the mix is not that of the screen.
Give bare numbers, in %.

Below, each entry is followed by its recorded inhibition result.
O=C(O)CCSc1nnc(-c2ccccc2)n1-c1ccccc1
24.4
COc1cccc(CNn2cn[nH]c2=S)c1OCc1ccccc1
0.39
O=C(NCc1ccc2c(c1)OCO2)c1c(O)nc2sccn2c1=O
5.79

Report inhibition for each item below.
1. COc1ccc(S(=O)(=O)NCCCc2ccccc2)cc1
2. CC(C)(C)c1cc(CN2CCN(CCC#N)CC2)cc(C(C)(C)C)c1O
3. COCCn1c(Cc2cccn2C)nnc1SCC(=O)Nc1nccs1
4. Nc1cc(N)nc(SCc2ccc(Cl)cc2)n1

output:
13.7
1.53
-1.79
24.1

Report inhibition for each item below.
1. CCCc1cc(=O)[nH]c(SCc2ccc(C#N)cc2)n1
2. Cc1ccc(S(=O)(=O)n2nc(OC(=O)C(C)(C)C)cc2N)cc1
3. CC1=CC(=NNS(=O)(=O)c2ccc([N+](=O)[O-])cc2)CC(C)(C)C1
4. COc1ccc(CCNC(=O)CN2CCC(n3nnc4cc(F)ccc43)CC2)cc1OC
5. O=C1N[C@@H](c2ccccc2)COC(=O)[C@H](Cc2ccc(F)cc2)C/C=C\C[C@@H]1CC(=O)N(CCO)Cc1ccccc1
6. COc1ccc(-c2csc3ncnc(N4CCN(S(=O)(=O)c5cccc(F)c5)CC4)c23)cc1
7. CN(CC(=O)Nc1ccc(Cl)cc1)C(=O)c1ccc(COc2ccccc2)cc1

output:
1: 25.2; 2: 24.3; 3: 31.9; 4: 4.75; 5: 4.49; 6: 5.03; 7: 7.71

---

Target: Platelet-activating factor acetylhydrolase IB subunit alpha2 (Homo sapiens) (UniProt P68402)
Assay: PAFAH1B2 enzyme inhibitors, primary screen, biochemical, fluorescence polarization, human (AID 492953);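 further: 0% = enzyme with DMSO and 100% = wells lacking PAFAH1B2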
Settings: recombinant PAFAH1B2, FP-rhodamine activity probe, at 3.39 µM
Screen size: about 340,000 compounds; about 4,200 (1.2%) were called active.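 Rule for the calls: active = inhibition above the mean of all tested compounds plus 3 SD (cut at about 24% in these data); inactive = the rest.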 Shown is part of a subset that was picked to be rich in actives.
Can you answer with just one of these options? 1.0 for active, 0.0 for inactive

CC1CC(=S)Nc2ccccc2N1Cc1ccccc1 (stereo unspecified)
0.0
CC(=O)N1CCOc2ccc(S(=O)(=O)N3CCN(c4cccc(C(F)(F)F)c4)CC3)cc21
0.0
CC1CN(Cc2ccco2)C(=S)N(c2ccccc2)C1=O (stereo unspecified)
0.0
CC1(C)Cc2ccccc2-c2[nH]c(=S)[nH]c(=O)c21
1.0
CCOc1cc(/C=C(/C#N)c2ccc(Cl)cc2)cc(Cl)c1OCC(=O)O
1.0

input: Hello, I am checking results. What call was entered for `CC1(C)Cc2ccccc2-c2nc(CN3CCOCC3)[nH]c(=O)c21` ?
output: 0.0

---

Target: Platelet-activating factor acetylhydrolase IB subunit alpha2 (Homo sapiens) (UniProt P68402)
Experiment: PAFAH1B2 enzyme inhibitors, primary screen, biochemical, fluorescence polarization, human (AID 492953);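 further: 0% = enzyme with DMSO and 100% = wells lacking PAFAH1B2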
Conditions: recombinant PAFAH1B2, FP-rhodamine activity probe, at 3.39 µM, active compounds read high
In all, about 340,000 compounds went through this assay and about 4,200 (1.2%) were called active. For the sample, actives were picked, then their nearest neighbours and some compounds at random.
ENDPOINT LABEL: inhibition (%)
One number for each entry, in %.

Below, each entry is followed by its recorded inhibition result.
Cc1ccccc1/C=C\c1nc(O)c([N+](=O)[O-])c(=O)[nH]1
9.97
CC[n+]1c(C)n(-c2ccccc2)c2ccc(NC(C)=O)cc21
1.05
COCC1CCCN(Cc2nc(-c3ccc4c(c3)OCO4)no2)C1 (stereo not drawn)
3.45
O=c1[nH]c(/C=C\c2cccc(C(F)(F)F)c2)nc(O)c1[N+](=O)[O-]
27.5
Cc1cccc(NS(=O)(=O)c2ccc(C)c(C(=O)NCC(c3ccccc3)N(C)C)c2)c1 (stereo not drawn)
6.63

Report inhibition for each item below.
1. Nc1ccc2c(c1)C(=Cc1cccnc1)c1ccccc1-2
2. O=c1cc(-c2ccccc2)nc(N2CCCCC2)[nH]1
3. CN(Cc1cc2cc(F)ccc2[nH]1)Cc1nc(-c2cnccn2)no1
4. CCC(=O)Nc1nnc(S(=O)(=O)N(CC(C)C)c2ccccc2)s1
5. CC(NC(=O)Nc1cccc([N+](=O)[O-])c1)c1ccc2c(c1)OCO2 (stereo not drawn)

output:
6.17
-3.66
3.21
17.8
0.41

---

Target: Platelet-activating factor acetylhydrolase IB subunit alpha2 (Homo sapiens) (UniProt P68402)
Test: PAFAH1B2 enzyme inhibitors, primary screen, biochemical, fluorescence polarization, human (AID 492953);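 further: 0% = enzyme with DMSO and 100% = wells lacking PAFAH1B2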
Settings: recombinant PAFAH1B2, FP-rhodamine activity probe, at 3.39 µM
The whole screen tested about 340,000 compounds, of which about 4,200 (1.2%) were called active.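 How the source made its calls: active means inhibition above the mean of all tested compounds plus 3 SD (cut at about 24% in these data); inactive means the rest.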 This excerpt belongs to a sample that is enriched for actives.
Can you answer with just one of these options? True (active), False (inactive)

Use the examples below as a reference point.
CCOC(=O)c1ccccc1OC(=O)Oc1ccccc1C(=O)OCC
False
O=C(OC12CC3CC(CC(C3)C1)C2)c1ccc(NCc2cc(O)ccc2O)cc1
False
CCC(=O)N1CCC(C(N)=O)(N2CCCCC2)CC1
False

input: Hello, I am checking results. What call was entered for `Cc1c(C(=O)NC2CCCCC2)oc2ccccc12` ?
output: False

input: Another compound to look at: `Cc1ccc(S(=O)(=O)NC(=O)N2CCCN(Cc3ccc(F)cc3)CC2)cc1`
output: False

input: Another compound to look at: `CCCCC(=O)NNC(=S)NC(=O)C(c1ccccc1)c1ccccc1`
output: True

input: Another compound to look at: `Cc1ccc(-c2nc(CSCC(=O)NC3CCN(Cc4ccccc4)CC3)c(C)o2)cc1`
output: False
